# procedure.details: Aqueous solubility at ambient conditions
# Assay type: physicochemical
# condition.notes: ambient conditions
recorded.endpoint: Ratio to Solubility of cis-ammine(2-methylpyridine)Dichloroplatinum (II)

Past entries and their recorded results:
[
  {
    "compound": "CC(=O)[O][Pt]([NH2])([Cl])([Cl])([NH]C1CCCCC1)[O]C(C)=O [Compound F, reference compound]",
    "result": "<1.4"
  },
  {
    "compound": "[NH2][Pt]1([NH2])[O]C(=O)C2(CCC2)C(=O)[O]1 [carboplatin, reference compound]",
    "result": 20
  },
  {
    "compound": "Cc1cccc[n+]1[Pt-2]([NH3+])([OH])([OH])([Cl])[Cl] [Compound B]",
    "result": 7.1
  },
  {
    "compound": "CC(=O)[O][Pt]([OH])([Cl])[O]C(C)=O.Cc1ccccn1.N [Compound C]",
    "result": 28.6
  },
  {
    "compound": "CC(=O)[O][Pt]([OH])([Cl])[O]C(C)=O.Cc1ccccn1.N [Compound E]",
    "result": 21.4
  }
]

Okay, now this compound:
get_value(item= Cc1ccccn1.N.[Cl-].[Cl-].[Pt+2] [reference compound] , readout=Ratio to Solubility of cis-ammine(2-methylpyridine)Dichloroplatinum (II)) returns 1

====

# procedure.details: Aqueous solubility at ambient conditions
# Format: physicochemical
# condition.notes: ambient conditions
recorded.endpoint: Ratio to Solubility of bis-butyrato-ammine-(cyclohexylamine)dichloro platinum (IV)
Answers are plain numbers.

Example cases with answers are listed next.
[
  {
    "compound": "CC(=O)[O][Pt]([OH])([Cl])[O]C(C)=O.Cc1ccccn1.N [Compound E]",
    "result": 75
  },
  {
    "compound": "Cc1cccc[n+]1[Pt-2]([NH3+])([OH])([OH])([Cl])[Cl]",
    "result": 25
  },
  {
    "compound": "[NH2][Pt]1([NH2])[O]C(=O)C2(CCC2)C(=O)[O]1 [carboplatin, reference compound]",
    "result": 70
  },
  {
    "compound": "CC(=O)[O][Pt]([OH])([Cl])[O]C(C)=O.Cc1ccccn1.N [Compound C]",
    "result": 100
  }
]

Just so you know, measured Ratio to Solubility of bis-butyrato-ammine-(cyclohexylamine)dichloro platinum (IV) for Cc1ccccn1.N.[Cl-].[Cl-].[Pt+2] [reference compound] came out at 3.5
